- assay-name: Clearance in human liver microsomes
- Format: ADME
- conditions-used: read-out: CLH
Rule: microsomal CLint below 90 µL/min/mg gives 1. Equal to or above 90 µL/min/mg gives -1.

is_below(microsomal CLint, 90 µL/min/mg) for O=C1C2=C(NC(=S)NC2c2cccc(OCc3ccccn3)c2)c2ccccc21 (stereo unspecified) ?
-1

is_below(microsomal CLint, 90 µL/min/mg) for COCCCOc1cc(C2NC(=S)NC3=C2C(=O)c2ccccc23)ccn1 (stereo unspecified) ?
1

---

- assay-name: Volume of distribution at steady state in Sprague-Dawley rat at 0.5 mg/kg, iv
- Assay type: ADME, organism-based
- Parameters: dose 0.5 mg/kg, route intravenous
- conditions-used: in vivo, read-out: Vdss
readout-kind: Vd (L/kg)
Just the number please, in L/kg, no unit attached.

compound: COCCCOc1cccc([C@H]2NC(=S)Nc3c2oc2ncccc32)c1
Vd / L/kg: 4

Next, consider the following compound.
Consider the compound COCCCOc1cccc([C@H]2NC(=S)NC3=C2C(=O)c2ccccc23)c1 and give its measured Vd.
4.7
